Biological target: T1, cynomolgus monkey CD19 on peripheral blood B cells (cynomolgus monkey (Macaca fascicularis), UniProt A0A2K5W8L9 20-557)
T1 construct: whole, on cells; also called cynomolgus monkey B cells
T1 sequence: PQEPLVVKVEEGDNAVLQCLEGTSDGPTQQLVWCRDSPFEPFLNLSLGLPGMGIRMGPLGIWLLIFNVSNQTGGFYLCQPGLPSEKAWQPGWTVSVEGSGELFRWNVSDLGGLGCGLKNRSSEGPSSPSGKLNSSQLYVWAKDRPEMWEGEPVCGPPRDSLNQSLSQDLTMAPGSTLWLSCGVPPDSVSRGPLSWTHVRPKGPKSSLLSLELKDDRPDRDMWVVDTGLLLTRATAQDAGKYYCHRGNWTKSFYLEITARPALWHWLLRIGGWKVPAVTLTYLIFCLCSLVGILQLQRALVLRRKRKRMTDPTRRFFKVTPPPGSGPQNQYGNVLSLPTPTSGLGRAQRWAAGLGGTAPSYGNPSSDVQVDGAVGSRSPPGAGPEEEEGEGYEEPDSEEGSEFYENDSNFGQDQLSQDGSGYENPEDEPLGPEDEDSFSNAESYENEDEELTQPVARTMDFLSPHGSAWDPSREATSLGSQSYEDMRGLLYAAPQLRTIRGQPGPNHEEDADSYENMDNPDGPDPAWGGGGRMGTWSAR
Assay: FACS, cynomolgus PBMC, CD20+ B cells
ENDPOINT: Proportion of chimeric antibody positive cells to B cells (%) at 1 nM
Lab book: enter the figure in %, no units written.

Would you mind telling me what Proportion of chimeric antibody positive cells to B cells (%) at 1 nM value was observed for F3.5.1 (antibody, human IgG1, V domains shown, human-murine chimeric antibody, human IgG1) VH: QAQLQQSGPELVKPGASVKISCKASGYAFSGSWMNWVQQRPGKGLEWIGRIYPGDGDTYYNGKFKDKAILTADKSSSTAYMQLSSLTSEDSAVYFCAQLRYRYVMDYWGQGTSVTVSS VL: DIVLTQSPASLAVSLGQRATISCRASESVSIHGSHLMHWYQQKPGQPPRLLIYAASNLESGVPARFSGSGSETDFTLNIHPVEEEDAATYFCQQGIKDPYTFGGGTKLEIK ?
6

# Proportion of chimeric antibody positive cells to B cells (%) at 1 nM lookup, item F6.12.12 (antibody, human IgG1, V domains shown, human-murine chimeric antibody, human IgG1) VH: DVQLQESGPGLVKPSQSLSLTCSVTGYSITSGYYWIWIRQFPGNKLEWMGYISYDASNKYKPSLKNRISITRDTSKNQFFLKLNSVTAEDTATYFCAREDLRGYFDVWGTGTSVTVSS VL: DIVLTQSPASLAVSLGRRATISCRASQSVSTSGFSYMHWYQQKPGQPPNLLIKYASILQSGVPARFSGSGSGTDFILNIHPVEDVDTATYYCQHSWGIPFTFGSGTKLEIK
91

What value of measured Proportion of chimeric antibody positive cells to B cells (%) at 1 nM is listed for F4.191.1 (antibody, human IgG1, V domains shown, human-murine chimeric antibody, human IgG1) VH: QVQLQQPGAELVRPGASVKLSCKASGYTFTSYWINWVKQRPGQGLEWIGNIHPSDSYTNYNQKFKDKATLTVDKSSSTAYMQFSSPTSEDSAVYYCTREDYYYGSNYDAMDYWGQGTSVTVSS VL: DIVMTQSHKFMSTSVGDRVNITCKASQDVGSSVAWYQQKPGQSPKLLIYWASTRHAGVPDRFTGSGSGADFTLTISNVQSEDLADYFCQQYSTYPLTFGAGTKLELK ?
3

Find the recorded Proportion of chimeric antibody positive cells to B cells (%) at 1 nM belonging to F4.41.1 (antibody, human IgG1, V domains shown, human-murine chimeric antibody, human IgG1) VH: QVQLQQSGAELVRPGTSVKVSCKASGYAFTNYLIEWVKQRPGQGLEWIGVINPGSGDTLYNEKFKGKATLTADKSSTTAYMQLSGLTSDVSAIYFCARSPPITTIVADYFDYWGQGTTLTVSS VL: DIQMTQTTSSLSASLGDRVTISCRASQDISNYLNWYQQKPDGTVKLLIYYTSRLHSGVPSRFSGSGSGADYSLTISNLEQEDIATYFCQQGKTLPYTFGGGTKLEIK and report it.
1

Reported Proportion of chimeric antibody positive cells to B cells (%) at 1 nM, binder F3.3.10 (antibody, human IgG1, V domains shown, human-murine chimeric antibody, human IgG1) VH: DVQLQESGPGLAKLSQSLSLTCSVTGYSITSGYYWNWIRQFPGNKLEWMGHISYDGNNNYNPSLKNRISITRDTSKNQFFLKLNSVTTEDTATYYCARENYSNYYFDYWGQGTTLTVSS VL: DIVLTQSPASLAVSLGQRATISCRASQSVSKSSYTYIHWYQQKPGQPPKLLIKYASILQSGVPARFSGSGSGTDFTLNFHPVEEEDTATYYCQHSWEIPYTFGGGTKLEIK : ____
38

What measured Proportion of chimeric antibody positive cells to B cells (%) at 1 nM goes with F5.11.2 (antibody, human IgG1, V domains shown, human-murine chimeric antibody, human IgG1) VH: EVQLVESGGDLVKPGGSLKLSCAASGFTFSSYGMSWVRQTPDKRLEWVATISHGGSYTHYPDSVKGRFTISRDNAKNTLYLQMNSLKSEDTAMYYCVRLPITTVEAPYFFDYWGQGTTLTVSS VL: DIQMTQTTSSLSASLGDRVTISCRASQDIRNYLNWYQQKPDGTVKLLIYYTSILHSGVPSRFSGSGSGTDYSLTINNLEQEDVATYFCQQGNTLYTFGGGTEVELR ?
12

# lookup: Proportion of chimeric antibody positive cells to B cells (%) at 1 nM of F4.35.5 (antibody, human IgG1, V domains shown, human-murine chimeric antibody, human IgG1) VH: EIQLQQSGPELVKPGASVKVSCKASGYAFTSYNMYWVKQSHGKSLEWIGYIDPYNGDTRYNQKFKGKATLTVDKSSSTAYMHLNSLTSEDSAVYYCTRSGTGRDYWGQGTTLTVSS VL: QIVLTQSPAIMSASPGEKVTMTCSASSSISYMFWFQQKPGSSPRLLIYDTSSLASGVPVRFSGSGSGTSYTLTISRMEAEDAATYYCQQWSNYPYTFGGGTKLEMK
1

Can you share its Proportion of chimeric antibody positive cells to B cells (%) at 1 nM? I mean this binder: F4.48.12 (antibody, human IgG1, V domains shown, human-murine chimeric antibody, human IgG1) VH: QMQLKESGPGLVAPSQSLSITCTVSGFSLTDYGVSWIRQPPGKGLEWLGVIWGSGSTFYNSALTSRLSISKDNSKSQVFLKMNSLQTADTAMYFCAKHHYYGGSFAMDYWGQGTSVTVSS VL: DIQMTQASSSLSASLGDRVTISCKTSQDISNYLNWYQQKPDGTFKLLIHYTSRLHSGVPSRFSGSGSGSDYSLTISNLEREDIATYFCQQGNSLPYTFGGGTKLEMK
1

# query: Proportion of chimeric antibody positive cells to B cells (%) at 1 nM of entry F3.121.4 (antibody, human IgG1, V domains shown, human-murine chimeric antibody, human IgG1) VH: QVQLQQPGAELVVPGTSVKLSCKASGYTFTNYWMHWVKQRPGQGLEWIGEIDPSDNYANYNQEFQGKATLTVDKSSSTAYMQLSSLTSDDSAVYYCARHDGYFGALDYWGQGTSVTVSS VL: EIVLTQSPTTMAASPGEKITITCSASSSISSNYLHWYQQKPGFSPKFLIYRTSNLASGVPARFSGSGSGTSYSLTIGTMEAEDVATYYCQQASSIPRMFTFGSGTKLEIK
1

Give its Proportion of chimeric antibody positive cells to B cells (%) at 1 nM value. Item: F4.107.12 (antibody, human IgG1, V domains shown, human-murine chimeric antibody, human IgG1) VH: EVQLQQSGPELVKPGASVKMSCKASGYTFTSYVLHWVRQKPGQGLEWIGYFNPYNDGTEYNEKFKGKAILTSDKSSSTAYMELNSLTSEDSAVYYCVGGTYYYGSSYPFAYWGQGTLVTVST VL: DVVMTQISLSLPVSLGDQASISCRSSQSLIHSNGNTYLQWYLQKPGQSPKLLIYKVSNRLSGVPDRFSGSGSGTDFTLKISRVEAEDLGVYFCSQSTHVPYTFGGGTKLEIK
20

Cited source for all entries: patent US20250042994A1
